Reference for the values: the RNAGym collection of RNA variant scans (doi:10.7554/elife.80360)

B1: Twister Ribozyme (parent)
chain: AACACUGCCAAUGCCGGUCCCAAGCCCGGAUAAAAGUGGAGGGGGCGG

Variants of: B1
experiment: self-cleavage, relative activity (ratio to wild type); higher = more cleavage; co-transcriptional
Exercise: for every item that follows, state its recorded self-cleavage.

// self-cleavage lookup, variant = G16C G47C , result: 0.268

// self-cleavage lookup, variant = C20A C21A , result: 0.0664

// self-cleavage lookup, variant = A2G C15U , result: 0.503

// self-cleavage lookup, variant = C3G C46G , result: 0.568

// self-cleavage lookup, variant = A33C A34C , result: 0.383

// self-cleavage lookup, variant = A33G U37A , result: 0.814

// self-cleavage lookup, variant = C27U G44C , result: 0.777

// self-cleavage lookup, variant = A4G U31G , result: 0.759

// self-cleavage lookup, variant = C8U A34U , result: 0.308

// self-cleavage lookup, variant = C8A C15A , result: 0.134

// self-cleavage lookup, variant = A4G C20U , result: 1.06

// self-cleavage lookup, variant = C3A C20A , result: 0.0829

// self-cleavage lookup, variant = C19A C21U , result: 0.0833

// self-cleavage lookup, variant = C9G A33G , result: 0.548

// self-cleavage lookup, variant = C15A C21U , result: 0.0997

// self-cleavage lookup, variant = C26A C46G , result: 0.358

// self-cleavage lookup, variant = A34C G39C , result: 0.0839

// self-cleavage lookup, variant = U37A G48C , result: 0.865

// self-cleavage lookup, variant = A33C G36C , result: 0.101

// self-cleavage lookup, variant = C5A A10C , result: 0.722

// self-cleavage lookup, variant = G38C G43A , result: 0.149

// self-cleavage lookup, variant = G7A A11G , result: 0.48

// self-cleavage lookup, variant = A4G A32C , result: 0.719

// self-cleavage lookup, variant = G28C U31A , result: 0.814

// self-cleavage lookup, variant = C15G C20U , result: 0.0686

// self-cleavage lookup, variant = C8U A22U , result: 0.419

// self-cleavage lookup, variant = G43A G47A , result: 0.237

// self-cleavage lookup, variant = C19A A33U , result: 0.148

// self-cleavage lookup, variant = C3U A35U , result: 0.421

// self-cleavage lookup, variant = A10U G24A , result: 0.0831

// self-cleavage lookup, variant = G16A C26A , result: 0.437

// self-cleavage lookup, variant = A10U G39A , result: 0.531

// self-cleavage lookup, variant = C26G G43C , result: 0.141

// self-cleavage lookup, variant = C3U A11G , result: 0.438

// self-cleavage lookup, variant = A4G U12G , result: 0.673

// self-cleavage lookup, variant = G17C G42A , result: 0.0674

// self-cleavage lookup, variant = C3G G7C , result: 0.0501

// self-cleavage lookup, variant = C25A A33G , result: 0.079

// self-cleavage lookup, variant = G36U G43C , result: 0.124

// self-cleavage lookup, variant = G39C A40C , result: 0.114

// self-cleavage lookup, variant = C14G G16C , result: 0.143

// self-cleavage lookup, variant = A4U A34C , result: 0.057

// self-cleavage lookup, variant = A2G U12G , result: 0.252

// self-cleavage lookup, variant = C5U G7C , result: 0.0595

// self-cleavage lookup, variant = A2C A4C , result: 0.154

// self-cleavage lookup, variant = G16A A32G , result: 0.888

// self-cleavage lookup, variant = C19G G41A , result: 0.113

// self-cleavage lookup, variant = C20U A35C , result: 0.881

// self-cleavage lookup, variant = U6C C27G , result: 0.0742

// self-cleavage lookup, variant = "G24U" , result: 0.128

// self-cleavage lookup, variant = A34G G43A , result: 0.136

// self-cleavage lookup, variant = G24A A30G , result: 0.125

// self-cleavage lookup, variant = G24A G47U , result: 0.0892

// self-cleavage lookup, variant = C5U C20U , result: 0.816

// self-cleavage lookup, variant = A22G G29C , result: 0.0828

// self-cleavage lookup, variant = C3A A34U , result: 0.252

// self-cleavage lookup, variant = C20G U37G , result: 0.0665

// self-cleavage lookup, variant = A10U U37A , result: 0.86

// self-cleavage lookup, variant = A1U G28U , result: 0.0658

// self-cleavage lookup, variant = C25G A40C , result: 0.0986

// self-cleavage lookup, variant = G7C C25U , result: 0.128

// self-cleavage lookup, variant = C21A G24A , result: 0.0758

// self-cleavage lookup, variant = G16C G44A , result: 0.803

// self-cleavage lookup, variant = G17U A23G , result: 0.0937

// self-cleavage lookup, variant = G7U C20G , result: 0.0693

// self-cleavage lookup, variant = U12C C46A , result: 0.903

// self-cleavage lookup, variant = C25A A30U , result: 0.0882

// self-cleavage lookup, variant = U6C C8G , result: 0.0656

// self-cleavage lookup, variant = C27G C46A , result: 0.0878

// self-cleavage lookup, variant = A33C G41A , result: 0.309

// self-cleavage lookup, variant = A22U C46G , result: 0.816

// self-cleavage lookup, variant = G39U G45C , result: 0.183

// self-cleavage lookup, variant = C8U C27A , result: 0.0891

// self-cleavage lookup, variant = A4G G17U , result: 0.0875

// self-cleavage lookup, variant = G36U G44A , result: 0.717

// self-cleavage lookup, variant = A33G G45A , result: 0.803

// self-cleavage lookup, variant = C3U U12A , result: 0.41
